// values below are reported melting point

{"MOLECULE": "Cc1cc(Oc2[nH]c(=O)[nH]c(=O)c2C(C)C)cc(C2OCCO2)c1", "melting point": "201 to 203 °C"}
{"MOLECULE": "CC(C(=O)c1ccc(Cl)cc1)N1CCC(O)(Cc2ccccc2)CC1 (stereo not given)", "melting point": "136 °C"}
{"MOLECULE": "CCCCC(Cn1cncn1)(C(N)=O)c1ccc(Cl)cc1Cl (stereo not given)", "melting point": "170 to 172 °C"}
{"MOLECULE": "O=C1CCC(N2Cc3c(OCc4ccc(CN5CCOc6ccccc65)cc4)cccc3C2=O)C(=O)N1 (stereo not given)", "melting point": "145 to 147 °C"}
{"MOLECULE": "CC(C)SCS(=O)C(C)C (stereo not given)", "melting point": "39 to 40 °C"}
{"MOLECULE": "CCCOc1ccc(C(CC(=O)O)N2C(=O)c3ccccc3C2=O)cc1 (stereo not given)", "melting point": "142 to 144 °C"}
{"MOLECULE": "CCOC(=O)c1c(N)sc2c1CN(C(=O)OCC)C2", "melting point": "154 to 156 °C"}
{"MOLECULE": "Cn1ccc2ccc(-c3ccc(C(F)(F)F)cc3)cc21", "melting point": "100 °C"}
{"MOLECULE": "Cc1noc2cc3c(cc12)C1(CO3)C(=O)N(Cc2ccccn2)c2ccccc21 (stereo not given)", "melting point": "142 to 143 °C"}
{"MOLECULE": "CC(=O)n1c2ccccc2c2ccccc21", "melting point": "70 to 71 °C"}
